target: UniProtKB Q9HAW8; experiment: IC50 assays, inhibition of UGT1A10 glucuronidation (Example 1); format: biochemical; design: His; made in house; host or cells: baculovirus-infected Sf9 insect cells; settings: co-substrate ~2 x Km, 4-MU in excess, read-out: IC50 (UDP-GlcUA)
reportedProperty: IC50
Remember to follow the number with its unit.

Item CCCCCCCCCC(=O)NC(COC(=O)NS(=O)(=O)OCC1OC(n2ccc(=O)[nH]c2=O)C(O)C1O)Cc1ccccc1 (stereo not shown) [PP55B] with UniProtKB Q9HAW8 - IC50?
15 µM

----------
target: UGT2B7 (Homo sapiens); assay: IC50 assays, inhibition of UGT2B7 glucuronidation (Example 1); details: read-out: IC50 (Substrate), p-nitrophenol (pNP) ~2 x Km, co-substrate in >5 fold excess
reportedProperty: pIC50
One number for each entry, as −log10 of the molar value.

Entry CCCCCCCCCC(=O)NC(COC(=O)NS(=O)(=O)OCC1OC(n2ccc(=O)[nH]c2=O)C(O)C1O)Cc1ccccc1 (stereo not shown) [PP55B] has what pIC50?
4.12

----------
molecular target: UGT1A10 (Homo sapiens); assay: IC50 assays, inhibition of UGT1A10 glucuronidation (Example 1); format: biochemical; parameters: His; made in house; host or cells: baculovirus-infected Sf9 insect cells; conditions: co-substrate ~2 x Km, E2 in excess, read-out: IC50 (UDP-GlcUA)
Sequence (Q9HAW8 26-530): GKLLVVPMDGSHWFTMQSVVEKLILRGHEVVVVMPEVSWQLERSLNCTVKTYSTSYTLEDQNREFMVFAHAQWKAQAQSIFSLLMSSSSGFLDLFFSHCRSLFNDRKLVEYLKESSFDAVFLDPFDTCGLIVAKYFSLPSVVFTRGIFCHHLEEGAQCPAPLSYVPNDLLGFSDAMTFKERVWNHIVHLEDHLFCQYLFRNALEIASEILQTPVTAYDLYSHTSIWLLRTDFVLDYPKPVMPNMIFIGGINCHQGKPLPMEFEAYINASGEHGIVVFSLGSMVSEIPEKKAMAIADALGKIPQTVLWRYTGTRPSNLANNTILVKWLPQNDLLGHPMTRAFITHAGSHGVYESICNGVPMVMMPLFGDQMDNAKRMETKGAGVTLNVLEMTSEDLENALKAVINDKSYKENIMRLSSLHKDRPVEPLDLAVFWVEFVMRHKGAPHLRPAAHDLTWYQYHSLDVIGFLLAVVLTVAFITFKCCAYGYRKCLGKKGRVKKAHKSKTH
reportedProperty: pIC50
Answers are plain numbers, as −log10 of the molar value.

Look at this molecule and give its reported pIC50. CCCCCCCCCC(=O)NC(COC(=O)NS(=O)(=O)OCC1OC(n2ccc(=O)[nH]c2=O)C(O)C1O)Cc1ccccc1 (stereo not shown) [PP55B]
4.41

----------
Target: UGT2B7 (Homo sapiens, UniProt P16662)
Sequence (P16662 24-529): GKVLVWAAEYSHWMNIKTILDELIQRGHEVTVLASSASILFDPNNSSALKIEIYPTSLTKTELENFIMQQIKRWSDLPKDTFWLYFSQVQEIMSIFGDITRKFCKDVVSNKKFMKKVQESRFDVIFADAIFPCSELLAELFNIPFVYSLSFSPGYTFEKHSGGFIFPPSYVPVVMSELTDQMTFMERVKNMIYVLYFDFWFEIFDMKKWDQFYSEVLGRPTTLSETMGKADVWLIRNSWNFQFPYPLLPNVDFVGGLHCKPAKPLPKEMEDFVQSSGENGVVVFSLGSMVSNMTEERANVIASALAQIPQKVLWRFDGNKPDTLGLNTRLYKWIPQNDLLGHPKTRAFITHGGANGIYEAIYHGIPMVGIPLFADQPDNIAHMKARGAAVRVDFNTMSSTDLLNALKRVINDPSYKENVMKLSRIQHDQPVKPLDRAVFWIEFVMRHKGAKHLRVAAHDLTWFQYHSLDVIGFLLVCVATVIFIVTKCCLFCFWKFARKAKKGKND
Assay: Ki assays / kinetics and inhibition type, UGT2B7 (Example 1)
Settings: read-out: Kiapp (UDP-GlcUA); UGT2B7; UDP-GlcUA varied, p-nitrophenol
reportedProperty: Ki (nM)
One number for each entry, in nM.

Please report the recorded Ki for CCCCCCCCCC(=O)NC(COC(=O)NS(=O)(=O)OCC1OC(n2ccc(=O)[nH]c2=O)C(O)C1O)Cc1ccccc1 (stereo not shown) [PP55B] .
2100

----------
biological target: UGT1A10 (Homo sapiens); assay: Ki assays / kinetics and inhibition type, UGT1A10 (Example 1); conditions: read-out: Kiapp (UDP-GlcUA), UDP-GlcUA varied, 4-MU
reportedProperty: pKi
Give bare numbers, as −log10 of the molar value.

Item under review: CCCCCCCCCC(=O)NC(COC(=O)NS(=O)(=O)OCC1OC(n2ccc(=O)[nH]c2=O)C(O)C1O)Cc1ccccc1 (stereo not shown) [PP55B] . Reported pKi?
5.24
